test: inhibitors of E-selectin induction by TNFa, primary screen, imaging, HUVEC, immunofluorescence, MLSMR starter and 10KST1 sets (AID 487); details: HUVEC TNFalpha-induced E-selectin immunofluorescence imaging, at 2 µM; measured here: cell number, toxicity;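 further: 100% = median nuclei count of all wells on the same plate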
Measured nuclei count, listed per entry.
Record the value in %, omitting the unit from your answer.

Ask | Please report the recorded nuclei count for CCC(C)Nc1nc2c(c(=O)n(C)c(=O)n2C)n1Cc1ccc(F)cc1 (stereo not given) .
Reply | 106

Ask | Please report the recorded nuclei count for O=C(Nc1ccc(N2CCN(C(=O)c3ccccc3)CC2)c(Cl)c1)c1ccc(Br)o1 .
Reply | 143

Ask | Please report the recorded nuclei count for Cc1cc2ccccc2c(=O)n1CC(=O)N(C)c1ccc(F)cc1 .
Reply | 103

Ask | Please report the recorded nuclei count for O=C(c1ccc(Br)o1)N1CCN(c2ccc3nnc(-c4ccccc4)n3n2)CC1 .
Reply | 120

Ask | Please report the recorded nuclei count for Cc1c(C2CC(=O)N(c3ccccc3)C2=O)[nH]n(-c2ccccc2)c1=O (stereo not given) .
Reply | 143

Ask | Please report the recorded nuclei count for COc1ccc(Cn2c(-c3ccco3)nc3oc4ccccc4c(=O)c3c2=O)cc1 .
Reply | 115

Ask | Please report the recorded nuclei count for CN1CCN(CC#CCC(O)(c2ccccc2)C2CCCC2)CC1 (stereo not given) .
Reply | 118

Ask | Please report the recorded nuclei count for O=C1c2ccccc2-c2onc3ccc(NCc4ccco4)c1c23 .
Reply | 118

Ask | Please report the recorded nuclei count for CCN1C(=O)c2cccc3c(NC(=O)c4ccc(S(=O)(=O)N(C)C)cc4)ccc1c23 .
Reply | 111

Ask | Please report the recorded nuclei count for c1ccc(-c2oc3ncnc(NCCN4CCOCC4)c3c2-c2ccccc2)cc1 .
Reply | 106
